Listed below: IC50 values for each entry.
# TARGET OR TEST SYSTEM: c-KIT V654A kinase (Homo sapiens, UniProt P10721, V654A)
# Construct: residues T544-V976 with N-terminal GST fusion
# Sequence (P10721 544-976 V654A): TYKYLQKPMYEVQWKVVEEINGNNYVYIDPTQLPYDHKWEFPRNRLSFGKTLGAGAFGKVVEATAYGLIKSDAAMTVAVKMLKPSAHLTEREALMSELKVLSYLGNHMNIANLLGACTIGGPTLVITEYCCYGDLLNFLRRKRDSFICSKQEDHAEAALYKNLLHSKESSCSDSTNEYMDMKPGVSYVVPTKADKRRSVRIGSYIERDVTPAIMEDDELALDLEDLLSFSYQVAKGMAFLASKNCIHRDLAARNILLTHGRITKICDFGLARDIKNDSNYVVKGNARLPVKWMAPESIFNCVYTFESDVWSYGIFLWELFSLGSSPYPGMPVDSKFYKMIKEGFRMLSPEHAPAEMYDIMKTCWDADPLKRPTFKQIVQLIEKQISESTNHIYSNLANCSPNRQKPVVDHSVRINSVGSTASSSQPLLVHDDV
# METHOD SUMMARY: c-KIT V654A Kinase Assay
# CONDITION: enzymatic assay, ATP 200 µM

| COMPOUND | IC50 |
| --- | --- |
| CC(=O)Nc1cc2c(cn1)cc(-c1cc(NC(=O)Nc3ccccc3)c(F)cc1Cl)c(=O)n2C(C)C [Example 86] | 10 to 100 nM |

Kindly review the next compound as well.
Specify IC50 for CCn1c(=O)c(-c2cc(NC(=O)Nc3cccc(F)c3)c(F)cc2C)cc2cnc(NC(=O)N(C)C)cc21 [Example 106] , system c-KIT V654A kinase (Homo sapiens, UniProt P10721, V654A).
10 to 100 nM
